Overview of reported IC50 across a group of molecules:
# Tested on: L-428
# assay.remarks: cells
# Assay type: functional, cell-based, Homo sapiens
# test.context: Homo sapiens, L-428
# Description: SANGER: Inhibition of human L-428 cell growth in a cell viability assay.
endpoint: IC50

- molecule: "NC(=O)c1cccc(-c2cc(Nc3ccc(OC(F)(F)F)cc3)ncn2)c1"
  tested.system: "L-428"
  readout.value: "> 1.28 µM"
- molecule: "COc1cc(N2CCC(N3CCN(C)CC3)CC2)ccc1Nc1ncc(Cl)c(Nc2ccccc2S(=O)(=O)C(C)C)n1 [TAE-684]"
  tested.system: "L-428"
  readout.value: "> 2 µM"
- molecule: "O=C(NCCCNc1nc(Nc2cccc(NC(=O)N3CCCC3)c2)ncc1I)c1cccs1 [BX-795]"
  tested.system: "L-428"
  readout.value: "> 5 µM"
- molecule: "CS(=O)(=O)N1CCN(Cc2cc3nc(-c4cccc5[nH]ncc45)nc(N4CCOCC4)c3s2)CC1 [PICTILISIB]"
  tested.system: "L-428"
  readout.value: "> 4 µM"
- molecule: "COC(=O)[C@H](CCSC)NC(=O)c1ccc(NC[C@@H](N)CS)cc1-c1ccccc1"
  tested.system: "L-428"
  readout.value: "> 1.02 µM"
- molecule: "NC1(c2ccc(-c3nc4ccn5c(=O)[nH]nc5c4cc3-c3ccccc3)cc2)CCC1 [MK-2206]"
  tested.system: "L-428"
  readout.value: "> 4 µM"

The reported numbers originate from ChEMBL document CHEMBL1201861.
